- Target Under Test: Glycogen synthase kinase-3 beta splice variant X1 (Bos taurus)
- Protocol Description: Inhibition of bovine cerebral TPK1 assessed as reduction in P-GS1 phosphorylation using [32gammaP]ATP incubated for 2 hrs by liquid scintillation counting method
Endpoint Label: IC50 (nM)

- Molecule: "Cn1c(N2CCN[C@@H](c3ccc(N4CCN(c5ccccc5)CC4)cc3)C2)nc(-c2ccncc2F)cc1=O"
  Endpoint Label: "IC50"
  Numeric Value: 0.53

(1) Cn1c(N2CCO[C@@H](c3ccc(C(=O)N4CCOCC4)cc3)C2)nc(-c2ccncc2F)cc1=O
(2) Cc1cc(C2CN(c3nc(-c4ccncc4F)cc(=O)n3C)CCO2)ccc1Br (stereo unspecified)
When 1 and 2 are compared, which has the higher number for IC50? To answer, give the label that identifies your chosen option.
1
(1: 7.4 nM, 2: 0.51 nM)

(A) COc1ccc(NC(C)=O)cc1[C@H]1CN(c2nc(-c3ccncc3F)cc(=O)n2C)CCO1
(B) CN(C)CC(=O)Nc1ccc([C@H]2CN(c3nc(-c4ccncc4F)cc(=O)n3C)CCO2)cc1
(C) CC(=O)Nc1cccc([C@H]2CN(c3nc(-c4ccncc4F)cc(=O)n3C)CCO2)c1
Please rank these molecules by IC50 in descending order. Provide the labels, sequenced as the question asks.
C, A, B
(C: 4.1 nM, A: 0.48 nM, B: 0.27 nM)

====

- Target Under Test: Glycogen synthase kinase-3 beta splice variant X1 (Bos taurus)
- Protocol Description: Inhibition of bovine cerebral TPK1 assessed as reduction in P-GS1 phosphorylation using [32gammaP]ATP incubated for 2 hrs by liquid scintillation counting method
The source made the active and inactive calls. No rule for the calls is given here.
Endpoint Label: inhibition

Consider the reported inhibition for these compounds:
- Compound: "Cn1c(N2CCN[C@H](c3ccc(C#N)cc3)C2)nc(-c2ccncc2F)cc1=O"
  Result: "Active"
- Compound: "Cn1c(N2CCOC(c3ccc(Br)cc3)C2)nc(-c2ccncc2F)cc1=O (stereo not drawn)"
  Result: "Active"
- Compound: "Cn1c(N2CCO[C@@H](c3ccc(NC45CC6CC(CC(C6)C4)C5)cc3)C2)nc(-c2ccncc2F)cc1=O"
  Result: "Active"
- Compound: "CC(O)c1ccc([C@H]2CN(c3nc(-c4ccncc4F)cc(=O)n3C)CCO2)cc1 (stereo partly drawn)"
  Result: "Active"
- Compound: "CC(C)Nc1ccc([C@H]2CN(c3nc(-c4ccncc4F)cc(=O)n3C)CCO2)cc1"
  Result: "Active"

Lab request: please report inhibition under test system Glycogen synthase kinase-3 beta splice variant X1 (Bos taurus) for Cn1c(N2CCO[C@@H](c3ccc(OC(F)(F)F)cc3)C2)nc(-c2ccncc2F)cc1=O
Active

Lab request: please report inhibition under test system Glycogen synthase kinase-3 beta splice variant X1 (Bos taurus) for CN1CCN(CCOc2ccc([C@H]3CN(c4nc(-c5ccncc5F)cc(=O)n4C)CCO3)cc2)CC1
Active

Lab request: please report inhibition under test system Glycogen synthase kinase-3 beta splice variant X1 (Bos taurus) for CCN(CC)CCCOc1ccc([C@H]2CN(c3nc(-c4ccncc4F)cc(=O)n3C)CCO2)cc1
Active

====

- Target Under Test: Glycogen synthase kinase-3 beta splice variant X1 (Bos taurus, UniProt A0A059UE90)
- Protocol Description: Inhibition of bovine cerebral TPK1 assessed as reduction in P-GS1 phosphorylation using [32gammaP]ATP incubated for 2 hrs by liquid scintillation counting method
pIC50: −log10 of the molar value.
Endpoint Label: pIC50

- Smi: "COC(=O)Nc1ccc([C@H]2CN(c3nc(-c4ccncc4F)cc(=O)n3C)CCO2)cc1"
  Numeric Value: 8.92
- Smi: "Cn1c(N2CCO[C@@H](c3ccc(OCCN4CCOCC4)cc3)C2)nc(-c2ccncc2F)cc1=O"
  Numeric Value: 8.96

(P) CC(C)Oc1ccc(-c2ccc([C@H]3CN(c4nc(-c5ccncc5F)cc(=O)n4C)CCN3)cc2)cc1
(Q) COc1ccc(-c2ccc([C@H]3CN(c4nc(-c5ccncc5F)cc(=O)n4C)CCN3)cc2)cc1
(R) Cn1c(N2CCO[C@@H](c3ccc(N)cc3)C2)nc(-c2ccncc2F)cc1=O
Ascending by pIC50, please. Provide the labels, sequenced as the question asks.
R, P, Q
